- Target Under Test: Monoclonal antibody 3E7
- Assay Protocol: solution RIA, displacement of [125I]b-endorphin from mAb 3E7
pIC50: −log10 of the molar value.
Note to self: values exactly at 6 are criterion met. So pIC50 at or above 6 is criterion met, below is criterion not met.

YGGFL
criterion met

Check this binder for pIC50 at or above 6: "YGPFWS" criterion not met

Item "YGGWAG" with pIC50 of 6 or above? criterion not met

Is reported pIC50 greater than or equal to 6 here: "YGFWGM" criterion met

Quick check, pIC50 >= 6? "YGGF" criterion met

Check this binder for pIC50 at or above 6: "YAGFAQ" criterion not met

Evaluate "YGNWTY" : pIC50 at minimum 6? criterion not met

pIC50 >= 6 for "YGGFPD" ? criterion not met
